Data origin, for the record: the supplement of paper PMC6555819

- System: LXRa:RXRa (NR concentration 270 nM, RXRa partner concentration 90 nM)
- protocol: PBM binding z-score (relative to random genomic background probes); higher = stronger binding; sequences stand for … in GC…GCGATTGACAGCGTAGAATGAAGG
This listing pairs sequences with measured PBM binding z-score.
readout.label: PBM binding z-score

[[record]]
residue_sequence = "TCTCGGAGGACATGAAGGTCAGAGCTTTCCAGAG"
result = 1.08

[[record]]
residue_sequence = "CAAACTAGGTCAAGGTCAAAGTGGGTTTGTGCCA"
result = 5.42

[[record]]
residue_sequence = "GTTTGTAGATCAAGGTTAAGAAAGACTAAGCTAA"
result = 1.64

[[record]]
residue_sequence = "CAAACTAGGTCACAGAGGTCCAAGTCCGTGCGTA"
result = 3.27

[[record]]
residue_sequence = "TCTAGCAGGCCAGAGGGTCACCCAAGAGGTACGG"
result = 1.35

[[record]]
residue_sequence = "ATATTTAGGTTAGCTGGGGTCATTCAGACTAGGC"
result = 5.53

